Where these numbers come from: patent US20220177587A1

Molecular target: CD28 (Homo sapiens, UniProt P10747)
Test: Flow binding to Jurkat/IL2 reporter cells (CD28)
Set-up: host or cells: Jurkat cells expressing an IL-2-luciferase reporter
Settings: Table E11; Jurkats (CD28); 33.3 nM
endpointLabel: CD28 MFI at 33.3 nM
Form rule: numeric answer, no unit written next to it.

Query string: Item under review: H18Y/E35D/V68M/T79M/L85M (protein, UniProt P33681 35-288, looked up, variant H18Y E35D V68M T79M L85M) T-lymphocyte activation …: VIHVTKEVKEVATLSCGYNVSVEELAQTRIYWQKDKKMVLTMMSGDMNIWPEYKNRTIFDITNNLSIMILALRPSDEGMYECVVMKYEKDAFKREHLAEVTLSVKADFPTPSISDFEIPTSNIRRIICSTSGGFPEPHLSWLENGEELNAINTTVSQDPETELYAVSSKLDFNMTTNHSFMCLIKYGHLRVNQTFNWNTTKQEHFPDNLLPSWAITLISVNGIFVICCLTYCFAPRCRERRRNERLRRESVRPV . Reported CD28 MFI at 33.3 nM?
Result string: 1041

Query string: For H18Y/E35D/M47L/Y53F/V68M/A71G (protein, UniProt P33681 35-288, looked up, variant H18Y E35D M47L Y53F V68M A71G) T-lymphocyte activation …: VIHVTKEVKEVATLSCGYNVSVEELAQTRIYWQKDKKMVLTMMSGDLNIWPEFKNRTIFDITNNLSIMILGLRPSDEGTYECVVLKYEKDAFKREHLAEVTLSVKADFPTPSISDFEIPTSNIRRIICSTSGGFPEPHLSWLENGEELNAINTTVSQDPETELYAVSSKLDFNMTTNHSFMCLIKYGHLRVNQTFNWNTTKQEHFPDNLLPSWAITLISVNGIFVICCLTYCFAPRCRERRRNERLRRESVRPV then?
Result string: 15.7

Query string: Same for E35D/M47L/Y53F/V68M/A71G/K93R/E95V (protein, UniProt P33681 35-288, looked up, variant E35D M47L Y53F V68M A71G K93R E95V) T-lymphocyte activation …: VIHVTKEVKEVATLSCGHNVSVEELAQTRIYWQKDKKMVLTMMSGDLNIWPEFKNRTIFDITNNLSIMILGLRPSDEGTYECVVLKYEKDAFRRVHLAEVTLSVKADFPTPSISDFEIPTSNIRRIICSTSGGFPEPHLSWLENGEELNAINTTVSQDPETELYAVSSKLDFNMTTNHSFMCLIKYGHLRVNQTFNWNTTKQEHFPDNLLPSWAITLISVNGIFVICCLTYCFAPRCRERRRNERLRRESVRPV
Result string: 383

Query string: Queued: H18Y/E35D/V68M/L85M/R94Q (protein, UniProt P33681 35-288, looked up, variant H18Y E35D V68M L85M R94Q) T-lymphocyte activation …: VIHVTKEVKEVATLSCGYNVSVEELAQTRIYWQKDKKMVLTMMSGDMNIWPEYKNRTIFDITNNLSIMILALRPSDEGTYECVVMKYEKDAFKQEHLAEVTLSVKADFPTPSISDFEIPTSNIRRIICSTSGGFPEPHLSWLENGEELNAINTTVSQDPETELYAVSSKLDFNMTTNHSFMCLIKYGHLRVNQTFNWNTTKQEHFPDNLLPSWAITLISVNGIFVICCLTYCFAPRCRERRRNERLRRESVRPV
Result string: 14

Query string: Another molecule: E35D/D46E/M47L/V68M/T79M/L85M (protein, UniProt P33681 35-288, looked up, variant E35D D46E M47L V68M T79M L85M) T-lymphocyte activation …: VIHVTKEVKEVATLSCGHNVSVEELAQTRIYWQKDKKMVLTMMSGELNIWPEYKNRTIFDITNNLSIMILALRPSDEGMYECVVMKYEKDAFKREHLAEVTLSVKADFPTPSISDFEIPTSNIRRIICSTSGGFPEPHLSWLENGEELNAINTTVSQDPETELYAVSSKLDFNMTTNHSFMCLIKYGHLRVNQTFNWNTTKQEHFPDNLLPSWAITLISVNGIFVICCLTYCFAPRCRERRRNERLRRESVRPV
Result string: 403
